System: vasopressin V1
TEST DETAILS: Vasopressin V1 Antagonist Activity in Conscious Rats (vasopressin vasopressor response)
Format: in vivo, rat (spontaneously hypertensive rats)
CONDITION LABEL: 20 mg/kg i.v.; VAS 0.02 i.u./kg; 120 min
MEASURED PARAMETER: Inhibition (%)
Just the number in %, nothing appended.

Which Inhibition is reported for this molecule? CSc1ccccc1C(=O)Nc1ccc(C(=O)N2Cc3ccccc3Cc3ccccc32)cc1
61

Which Inhibition is reported for this molecule? O=C(Nc1ccc(C(=O)N2Cc3ccccc3Cc3ccccc32)cc1)c1ccc(Cl)cc1Cl
57

Which Inhibition is reported for this molecule? Cc1ccccc1NC(=O)c1ccc(C(=O)N2Cc3ccccc3Cc3ccccc32)cc1
86

Which Inhibition is reported for this molecule? Cc1cccc(NC(=O)c2ccc(C(=O)N3Cc4ccccc4Cc4ccccc43)cc2)c1C
45

Which Inhibition is reported for this molecule? Cc1ccccc1C(=O)Nc1ccc(C(=O)N2Cc3ccccc3Sc3ccccc32)cc1
17
